biological target: 5-HT1A receptor (Homo sapiens); construct: host or cells: CHO-K1 (co-expressing Gα15); test: cAMP-Glo assay of 5-HT1A receptor modulation with 4 μM forskolin in CHO-K1/5-HT1A/Gα15 (+5-HT1A) versus CHO-K1/Gα15 (−5-HT1A) cells; format: cell-based; conditions: fixed 4 μM forskolin; cAMP relative (%) to ligand-free samples; decrease = 5-HT1A activity, no difference = no modulation
Sequence (P08908 whole entry): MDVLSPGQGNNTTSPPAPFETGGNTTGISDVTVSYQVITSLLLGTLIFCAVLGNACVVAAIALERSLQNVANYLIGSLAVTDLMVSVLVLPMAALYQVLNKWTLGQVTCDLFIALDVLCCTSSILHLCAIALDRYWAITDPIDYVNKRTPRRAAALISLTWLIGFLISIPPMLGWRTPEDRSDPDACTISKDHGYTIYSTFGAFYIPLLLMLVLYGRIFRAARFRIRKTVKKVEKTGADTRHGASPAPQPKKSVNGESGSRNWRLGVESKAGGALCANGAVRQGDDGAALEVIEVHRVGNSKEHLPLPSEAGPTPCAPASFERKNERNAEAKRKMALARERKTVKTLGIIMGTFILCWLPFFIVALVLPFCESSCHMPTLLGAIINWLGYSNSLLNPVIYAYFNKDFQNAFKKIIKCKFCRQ
READOUT_KIND: % cAMP in +5HT1A compared to −5HT1A cultures as dosages increase

{"columns": ["COMPOUND", "SUBJECT_OF_TEST", "RECORDED_RESULT"],
 "data": [
  ["CN(C)CCc1c[nH]c2cccc(O)c12 [psilocin]", "5-HT1A receptor (Homo sapiens)", "decreased % cAMP"],
  ["NCCc1c[nH]c2ccc(O)cc12 [serotonin]", "5-HT1A receptor (Homo sapiens)", "decreased % cAMP"]
]}
